# system-under-test: 5-HT Transporter (SERT) Sites in Mouse Brain (Mus musculus, UniProt Q60857)
# Construct: Whole brains were removed and cortex and striata dissected out; from tissue; host or cells: C57BL/6 mouse frontal cortex homogenate
# Sequence (Q60857 whole entry): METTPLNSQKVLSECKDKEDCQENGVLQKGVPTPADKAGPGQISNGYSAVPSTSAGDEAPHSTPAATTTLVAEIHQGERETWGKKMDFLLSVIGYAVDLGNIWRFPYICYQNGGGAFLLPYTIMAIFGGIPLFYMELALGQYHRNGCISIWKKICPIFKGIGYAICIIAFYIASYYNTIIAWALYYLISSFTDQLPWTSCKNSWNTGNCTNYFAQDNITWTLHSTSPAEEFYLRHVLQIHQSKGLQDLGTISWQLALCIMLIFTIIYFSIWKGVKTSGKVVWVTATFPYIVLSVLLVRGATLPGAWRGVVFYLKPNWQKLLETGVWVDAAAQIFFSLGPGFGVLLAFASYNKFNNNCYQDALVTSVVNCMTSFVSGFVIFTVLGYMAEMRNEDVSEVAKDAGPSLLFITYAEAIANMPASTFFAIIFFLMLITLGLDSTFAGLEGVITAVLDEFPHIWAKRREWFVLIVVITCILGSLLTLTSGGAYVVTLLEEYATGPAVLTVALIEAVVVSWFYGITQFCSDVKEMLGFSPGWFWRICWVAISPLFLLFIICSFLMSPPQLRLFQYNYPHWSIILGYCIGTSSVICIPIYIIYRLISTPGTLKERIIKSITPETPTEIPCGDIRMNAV
# assay: Ex vivo [3H] citalopram binding after oral dosing
# Parameters: species or system C57BL/6 mice
# study-conditions: 10 mg/kg, 60 minutes after treatment, vs vehicle
In this section we review reported % Transporter Occupancy, SERT values for a set of compounds.

{"compound": "CC(N(C)C)C1(c2ccc3ccccc3c2)CCCCC1 (single isomer, unassigned) [56 E1]", "% Transporter Occupancy, SERT, %": 91}
{"compound": "CN(C)CC1(c2ccc(Cl)c(Cl)c2)CCC(C)(O)CC1 (centres unmarked) [Compound 277]", "% Transporter Occupancy, SERT, %": 0}
{"compound": "CNC(C)C1(c2ccc3ccccc3c2)CCCCC1 (single isomer, unassigned) [58 E1]", "% Transporter Occupancy, SERT, %": 47}
{"compound": "CN(C)C[C@]1(c2ccc3ccccc3c2)CC[C@](C)(O)CC1 [Compound 225]", "% Transporter Occupancy, SERT, %": 81}
{"compound": "CNCC1(c2ccc(Cl)c(Cl)c2)CCC(C)(O)CC1 (centres unmarked) [Compound 276]", "% Transporter Occupancy, SERT, %": 28}
